test system: Swiss Webster mice; assay: Mouse tail flick assay (radiant heat); format: in vivo; settings: i.c.v., latency 5 min after injection
Non-standard residues stand in square brackets, D forms with d. Residues, ends and D or L forms follow the SMILES beside them. Phe(4-Cl) = N[C@@H](Cc1ccc(Cl)cc1)C(=O)O
test.readout: AD50 (nmol/mouse)
Answer format: numeric, nmol/mouse implied, no suffix.

N=C(N)NCCC[C@@H](Nc1ccc(C(=O)O)cc1NC(=O)Cc1ccc(O)cc1)C(N)=O	31.7
N=C(N)NCCC[C@H](C(N)=O)n1c(-c2ccc(O)cc2)nc2cc(C(=O)O)ccc21	9.6
N=C(N)NCCC[C@H]1NC(=O)[C@H](Cc2ccc(O)cc2)NC(=O)[C@H](Cc2ccc(Cl)cc2)NC(=O)CNC1=O [Compound I-1, Cyclo(-Gly-(p-chloro)Phe-Tyr-D-Arg-)] (cyclo(G[Phe(4-Cl)]Y[dR]))	9.1
N=C(N)NCCC[C@@H](Nc1ccc(C(=O)c2ccc(Cl)cc2)cc1NC(=O)Cc1ccc(O)cc1)C(N)=O	13.1

Request: Consider the compound shown here: CN1CC[C@]23c4c5ccc(O)c4O[C@H]2[C@@H](O)C=C[C@H]3[C@H]1C5 [Morphine, reference compound] What is its recorded AD50 (nmol/mouse)?
Result: 1.57

Request: Consider the compound shown here: C[C@@H](O)[C@@H]1NC(=O)[C@@H](CCCNC(=N)N)NC(=O)[C@H](Cc2ccc(O)cc2)NC(=O)[C@H](Cc2ccc(Cl)cc2)NC1=O [Compound I-5, Cyclo(-Thr-(p-chloro)Phe-Tyr-D-Arg-)] (cyclo([Phe(4-Cl)]Y[dR]T)) What is its recorded AD50 (nmol/mouse)?
Result: 38.5

Request: Consider the compound shown here: N=C(N)NCCC[C@H](Nc1ccccc1NC(=O)Cc1ccc(O)cc1)C(N)=O What is its recorded AD50 (nmol/mouse)?
Result: 14.2

Request: Consider the compound shown here: N=C(N)NCCC[C@H](Nc1ccc(C(F)(F)F)cc1NC(=O)Cc1ccc(O)cc1)C(N)=O What is its recorded AD50 (nmol/mouse)?
Result: 98.6

* * *

test system: Swiss Webster mice; experiment: Mouse writhing test (acetic acid-induced); format: in vivo; details: i.c.v., acetic acid i.p. 5 min after injection
Non-standard residues stand in square brackets, D forms with d. Residues, ends and D or L forms follow the SMILES beside them. Phe(4-Cl) = N[C@@H](Cc1ccc(Cl)cc1)C(=O)O
Could you please mark fulfilled for values of AD50 (nmol/mouse) below 3 nmol/mouse and not fulfilled for values at or above it?

Request: Please let me know if N=C(N)NCCC[C@@H](Nc1ccc(C(=O)c2ccc(Cl)cc2)cc1NC(=O)Cc1ccc(O)cc1)C(N)=O shows AD50 (nmol/mouse) below 3 nmol/mouse.
Result: fulfilled

Request: Please let me know if N=C(N)NCCC[C@H](Nc1ccccc1NC(=O)Cc1ccc(O)cc1)C(N)=O shows AD50 (nmol/mouse) below 3 nmol/mouse.
Result: not fulfilled

Request: Please let me know if C[C@@H](O)[C@@H]1NC(=O)[C@@H](CCCNC(=N)N)NC(=O)[C@H](Cc2ccc(O)cc2)NC(=O)[C@H](Cc2ccc(Cl)cc2)NC1=O [Compound I-5, Cyclo(-Thr-(p-chloro)Phe-Tyr-D-Arg-)] (cyclo([Phe(4-Cl)]Y[dR]T)) shows AD50 (nmol/mouse) below 3 nmol/mouse.
Result: not fulfilled

Request: Please let me know if CN1CC[C@]23c4c5ccc(O)c4O[C@H]2[C@@H](O)C=C[C@H]3[C@H]1C5 [Morphine, reference compound] shows AD50 (nmol/mouse) below 3 nmol/mouse.
Result: fulfilled

Request: Please let me know if N=C(N)NCCC[C@H](C(N)=O)n1c(-c2ccc(O)cc2)nc2cc(C(=O)O)ccc21 shows AD50 (nmol/mouse) below 3 nmol/mouse.
Result: not fulfilled

Request: Please let me know if N=C(N)NCCC[C@H]1NC(=O)[C@H](Cc2ccc(O)cc2)NC(=O)[C@H](Cc2ccc(Cl)cc2)NC(=O)CNC1=O [Compound I-1, Cyclo(-Gly-(p-chloro)Phe-Tyr-D-Arg-)] (cyclo(G[Phe(4-Cl)]Y[dR])) shows AD50 (nmol/mouse) below 3 nmol/mouse.
Result: fulfilled

* * *

system: Swiss Webster mice; assay: Mouse writhing test (acetic acid-induced); assay type: in vivo; settings: i.c.v., acetic acid i.p. 5 min after injection
Residues, ends and D or L forms follow the SMILES beside them.
# AD50 (nmol/mouse) per entry
Answer format: numeric, nmol/mouse implied, no suffix.

# example entries with known answers
N=C(N)NCCC[C@H](Nc1ccc(C(F)(F)F)cc1NC(=O)Cc1ccc(O)cc1)C(N)=O [II-2]	16.1
CC(C)CC(NC(=O)C(NC(=O)C(CCCNC(=N)N)NC(=O)CNC(=O)C(CCC(N)=O)NC(=O)CN)C(C)O)C(=O)NC(Cc1ccc(O)cc1)C(=O)NCC(=O)NC(Cc1ccccc1)C(=O)O (stereo not drawn) [HN-(7–15), reference compound] (H-GQGRTLYGF-OH; configuration not given here)	8.5

Read the next record carefully.
Request: Consider the molecule shown here: N=C(N)NCCC[C@@H](Nc1ccc(C(=O)O)cc1NC(=O)Cc1ccc(O)cc1)C(N)=O [II-3] What is its recorded AD50 (nmol/mouse)?
Result: 3.16
